System: M19-MEL
assay_summary: NCI tumour cell line growth inhibition, 48 h
The source made the active and inactive calls. Rule as the data show it: active = GI50 up to about 1.1 µM and inactive = higher.
# GI50 annotations
property_label: GI50

CC(C)C1COC(c2ccc3ccccc3c2-c2c(O[Si](C)(C)C(C)(C)C)ccc3ccccc23)=N1 (centres undefined) : 18.8 µM (inactive)
CN(C)c1[se]nc2c1c(=O)n(C)c(=O)n2C : > 100 µM (inactive)
CC(C)NC(=O)O/N=C1\CCC2[C@@H]3CC=C4C[C@@H](OC(=O)NC(C)C)CC[C@]4(C)C3CC[C@]12C (some centres undefined) : 1.29 µM (inactive)
CC(=O)OC1(C#N)CC2OC1C1NC21 (centres undefined) : > 100 µM (inactive)

###

Test system: OVCAR-4
assay_summary: NCI tumour cell line growth inhibition, 48 h
Activity calls are given as the source filed them. Cut-off read from the data, not from the text of the source: active = GI50 up to about 1.1 µM and inactive = higher.
Outcomes: true = active, false = inactive

CCCCN(CCCC)CCCn1cnc2ncccc2c1=O : false
COc1ccc(C(=O)C(C(=O)CCC(=O)Nc2ccc(Cl)c(Cl)c2)c2ccc(OC)cc2)cc1 (stereo not given) : false
O=C1OC(C2OC(=O)c3cc(O)c(O)c(O)c3-c3c(O)c(O)c4oc(=O)c5c(c(O)c(O)c6oc(=O)c3c4c65)-c3c(cc(O)c(O)c3O)C(=O)OCC2O)C2OC(=O)c3c(c(O)c(O)c(O)c3[C@H]2O)-c2c1cc(O)c(O)c2O (stereo not given in full) : false
COCc1nc2c(OC)c(-c3nc4ccc(N5CCN(C)CC5)nc4[nH]3)cc(OC)c2n1C : false
CN[C@H](C)[C@@H](OC)c1ccccc1 : false
O=C1c2ccccc2C(=O)c2c1ccc1nc3c(nc21)-c1c2ccccc2cc2cccc-3c12 : false
NS(=O)(=O)c1ccc(NNC(=O)c2cccc3c(=O)c4ccccc4[nH]c23)cc1 : false
Cc1cc2cc3cc(C)c(N)cc3nc2cc1N : true
COC(=O)[C@H](C)NC(=O)[C@H](NS(=O)(=O)c1nc2ccccc2s1)c1ccccc1 : false
N#CC(C(=N/O)/C(=N/O)C(C#N)c1ccc(Cl)cc1)c1ccc(Cl)cc1 (stereo not given) : false
Cc1cnc(/C=N\NC(N)=S)c2cccc(N)c12 : false
O=C(Cc1ccc(OCc2cccc(Cl)c2)cc1)NO : false
CCC1(CN(C)C)CC/C(=C\c2ccc(OC)c(OC)c2)C1=O (stereo not given) : false
CC[C@](C)(O)C(=O)O[C@H]1C(=O)O[C@@H]2C[C@H]3C(C)=C[C@H](O)[C@@H](O)[C@]3(C)[C@H]3[C@@]4(O)OC[C@]32[C@@H]1[C@@H](C)[C@H]4O : false
O=C(/C=C/c1ccc(OCCCOc2ccc(/C=C/C(=O)c3ccccc3)cc2)cc1)c1ccccc1 : false

###

Tested on: Hs-578T
assay_summary: NCI tumour cell line growth inhibition, 48 h
Activity calls are given as the source filed them. Cut-off read from the data, not from the text of the source: active = GI50 up to about 1.1 µM and inactive = higher.
property_label: GI50

Cc1ccc(/N=C2\C(=N/c3ccc(C)cc3)N(c3ccc(C)cc3)C(=S)N2C(=O)c2ccccc2)cc1 : > 100 µM (inactive)
O=C(O)CCCCn1cnc2c(S)ncnc21 : > 100 µM (inactive)
NC(Cc1c[nH]c2cc([N+](=O)[O-])ccc12)C(=O)O (centres undefined) : > 100 µM (inactive)
CC/C(Cl)=N\OC(=O)Nc1ccc(F)c([N+](=O)[O-])c1 : 17.4 µM (inactive)

###

System: RXF 393
assay_summary: NCI tumour cell line growth inhibition, 48 h
Active and inactive are the calls of the source. No stated cut-off is given here; in the data, active = GI50 up to about 1.1 µM and inactive = higher.
Possible outcomes: active, inactive

COc1ccc2oc(=N)c(C(=O)NCc3ccccc3)cc2c1 : inactive
COc1ccc2c(c1)[n+]([O-])c(-c1ccc([N+](=O)[O-])cc1)c(N)[n+]2[O-] : inactive
N#CC1(C#N)NC(c2cccnc2)C(C#N)(C#N)NC1c1cccnc1 (stereo not given) : inactive
CN(C)Cc1cc(C(=O)/C=C/c2ccc(Cl)c(Cl)c2)cc(CN(C)C)c1O : inactive
COc1cc(-c2[o+]c3cc(O)cc(OC4OC(CO)C(O)C(O)C4O)c3cc2OC2OC(CO)C(O)C(O)C2O)cc(OC)c1O (stereo not given) : inactive
Cc1ccc(C)c(NC(=O)c2cccc([N+](=O)[O-])c2O)c1 : active
CC(C)=CCc1c(O)cc2oc(-c3ccc(O)cc3O)cc(=O)c2c1O : inactive
Cc1ccc(/N=C2\C(=N/c3ccc(C)cc3)N(c3ccc(C)cc3)C(=S)N2C(=O)c2ccccc2)cc1 : inactive
O=C1Nc2ccccc2/C1=N/NC(=O)c1ccccc1O : inactive
CSc1nc(NC2OCC(OC(C)=O)C(OC(C)=O)C2OC(C)=O)c2c(OC(C)=O)c(C)c(=O)oc2n1 (stereo not given) : inactive
CCOC(=O)CNC(=O)C(CSC(=O)N(O)c1ccc(Br)cc1)NC(=O)CCC(N)C(=O)OCC (stereo not given) : inactive
COc1ccc2c(c1)CC1Cc3ccccc3CCN1C2 (stereo not given) : inactive
Nc1n[nH]c2nc3ccccc3nc12 : inactive
Cc1occc1C(=S)Nc1ccc(Cl)c(/C=N/OC(C)C)c1 : inactive
CSc1nc2[nH]c(=O)c(C)nc2c(=O)[nH]1 : inactive

###

Test system: SK-OV-3
assay_summary: NCI tumour cell line growth inhibition, 48 h
The source made the active and inactive calls. No stated cut-off is given here; in the data, active = GI50 up to about 1.1 µM and inactive = higher.
// reported GI50 for each item listed
property_label: GI50

COc1cc2c(cc1OC)-c1cc3ccccc3c(=O)n1CC2 : 13.3 µM (inactive)
O=C(O)c1cc2sc(C(=O)O)cc2s1 : > 100 µM (inactive)
O=C1C(Br)=CC2(C=C1Br)CCNC1=C2C(=O)c2[nH]cnc2C1=O : 21.5 µM (inactive)
Cc1occc1C(=S)Nc1ccc(Cl)c(/C=N/OC(C)C)c1 : 24.3 µM (inactive)
Cc1ccc(C)c(COCCOCn2ccc(N)nc2=O)c1 : > 100 µM (inactive)
CC(=O)OCC12C(OC(C)=O)C(=O)C3C(OC(C)=O)C14OC3(C)COC(=O)c1cccnc1C(C)C(C)C(=O)OC(C(OC(C)=O)C2OC(C)=O)C4(C)O (configuration not stated) : > 100 µM (inactive)
C=C(C(=O)C(=O)Oc1ccc(Cl)cc1)C(=O)c1ccc(C)cc1 : > 100 µM (inactive)

###

System: UACC-62
assay_summary: NCI tumour cell line growth inhibition, 48 h
The source made the active and inactive calls. Rule as the data show it: active = GI50 up to about 1.1 µM and inactive = higher.
Outcomes: 1 (yes) for active, 0 (no) for inactive

C=CCN1C(=O)/C(=C/c2ccco2)N=C1SC/C=C/C : 0 (no)
CCC(=O)O[C@H]1CC[C@H]2[C@@H]3CCC4=C/C(=N/OC(=O)c5cccc6c(=O)c7ccccc7[nH]c56)CC[C@]4(C)[C@H]3CC[C@]12C : 0 (no)
CCOP(=O)(OCC)/C(C#N)=C/c1cnc(C)[nH]1 : 0 (no)
COc1cc(-c2[o+]c3cc(O)cc(OC4OC(CO)C(O)C(O)C4O)c3cc2OC2OC(CO)C(O)C(O)C2O)cc(OC)c1O (stereo unspecified) : 0 (no)
O=C1C(Cl)N(c2ccccc2)C1c1c[nH]c2ccccc12 (stereo unspecified) : 0 (no)
CC(=O)O[C@H]1C(=O)[C@@]2(C)[C@H]([C@H](OC(=O)c3ccccc3)[C@]3(O)C[C@H](OC(=O)[C@H](O)[C@@H](NC(=O)CC(C)C)c4ccccc4)C(C)=C1C3(C)C)[C@]1(OC(C)=O)CO[C@@H]1C[C@@H]2O : 1 (yes)
Oc1c([Si](c2ccccc2)(c2ccccc2)c2ccccc2)cc2ccccc2c1-c1c(O)c([Si](c2ccccc2)(c2ccccc2)c2ccccc2)cc2ccccc12 : 0 (no)
Nc1c(Cl)ncnc1NCCCCCCCCCCCCNc1ncnc(Cl)c1N : 0 (no)
COc1cc(Br)c(CC2C3=C(CCN2C(=O)C2CCC2)CC(=O)CC3)cc1O (stereo unspecified) : 0 (no)
Cc1ccc(/N=C2\C(=N/c3ccc(C)cc3)N(c3ccc(C)cc3)C(=S)N2C(=O)c2ccccc2)cc1 : 0 (no)
Cc1oc2c(c1C)S(=O)(=O)C(C#N)=C(N(C)C)N2 : 0 (no)
Cc1ccc(-c2c(C#N)c(-c3ccc(N(C)C)cc3)c(C#N)c(=O)n2NS(=O)(=O)c2ccccc2)cc1 : 0 (no)
C=CC1=CC(C)C[C@]1(O)C(=O)OC (stereo partly specified) : 1 (yes)
CSc1ccc2c(cc1=O)C(NC(=O)c1ccc(OC(C)=O)cc1)CCc1cc(O)c(O)c(O)c1-2 (stereo unspecified) : 0 (no)
C=CCCCCCCCCC(=O)ON(Cc1ccc(O)c(OC)c1)C(=O)C(F)(F)F : 0 (no)
COc1cc2c(cc1OC)-c1cc3ccccc3c(=O)n1CC2 : 0 (no)
CN(CCN(C)C(=O)CCOS(C)(=O)=O)C(=O)CCOS(C)(=O)=O : 0 (no)
COC(=O)C1=C2SCc3ccc(cc3)CSC3=C(C(=O)OC)SC(=C(S2)S1)S3 : 0 (no)
O=C1OC2(OC2c2ccc(Cl)cc2)c2ccccc21 (stereo unspecified) : 0 (no)
COc1cc(C2c3cc4c(cc3OC(NNS(=O)(=O)c3ccc(C)cc3)C2C)OCO4)cc(OC)c1O (stereo unspecified) : 0 (no)
COc1cc(-c2coc3c(OC)c(OC4OC(CO)C(O)C(O)C4O)c(OC)cc3c2=O)cc(OC)c1C (stereo unspecified) : 0 (no)
O=C(N/N=C\c1ccc([N+](=O)[O-])cc1)Nc1cccc2ccccc12 : 0 (no)
CSc1nc(=O)cnn1C : 0 (no)
N=C(N)NS(=O)(=O)c1ccc(NCc2c3ccccc3[n+]([O-])c3ccccc23)cc1 : 0 (no)
O=C(O)CCCCn1cnc2c(S)ncnc21 : 0 (no)
O=C(c1ccccc1)N(C(=O)c1ccccc1)c1nc(SCc2ccccc2)ns1 : 0 (no)
